Target: p53 Y220C (Homo sapiens, UniProt P04637, Y220C)
Experiment: Luciferase Reporter Assay (Luc), p53 response element, NClH1299 cells with inducible p53 Y220C
Format: cell-based
Settings: Emax; luciferase reporter, NClH1299 inducible p53 Y220C, 6 hour
Answer each item with its documented Emax.

Examples with answers:
COc1cc(C(=O)NCC2CN(C)C2)ccc1NCC#Cc1nc2c(N[C@@H]3CCOC[C@@H]3F)cccn2c1SC(F)(F)F
70 to 80%
CNC(=O)c1ccc(OC)c(NCC#Cc2nn3c(N[C@@H]4C[C@H]5CC[C@@H]([C@@H]4F)N5C)cccc3c2SC(F)(F)F)c1
80 to 90%
CNC(=O)c1ccc(NCC#Cc2nc3c(N[C@@H]4CCN(C)C[C@@H]4F)cccn3c2SC(F)(F)F)c(F)c1
> 90%
CNC(=O)c1ccc(OC)c(NCC#Cc2cc3c(N[C@@H]4CCN(C)C[C@@H]4F)cccn3c2SC(F)F)c1
> 90%
CNC(=O)c1ccc(NCC#Cc2nc3c(N[C@@H]4C[C@H]5CC[C@H](N5)[C@@H]4F)cccn3c2SC(F)(F)F)c(OC)c1
80 to 90%

Here is the next item to consider.
The value of Emax measured for the molecule `CNC(=O)c1ccc(OC)c(NCC#Cc2cc3c(N[C@@H]4CCNC[C@@H]4F)nccn3c2SC(F)F)c1` turned out to be > 90%

* * *

Biological target: p53 Y220C mutant protein (amino acid residues 94-293) (Homo sapiens, UniProt P04637, Y220C)
Construct: p53 Y220C mutant protein (amino acid residues 94-293)
Assay: Surface Plasmon Resonance (SPR) assay, Kd_kinetic
Assay type: binding
Settings: SPR, kinetic KD, p53 Y220C; read-out: SPR P53 Y220C KD kinetic
OUTCOME_MEASURE: Kd

Examples with answers:
COc1cc(S(C)(=O)=O)ccc1NCC#Cc1nc2c(N[C@@H]3CCN(C)C[C@@H]3F)cccn2c1SC(F)(F)F [Example 82]
< 0.01 µM
CNC(=O)c1ccc(NCC#Cc2nc3c(N[C@@H]4C[C@H]5CC[C@@H]([C@@H]4F)N5C)cccn3c2SC(F)(F)F)c(OC)c1 [Example 122]
< 0.01 µM
CNC(=O)c1ccc(NCC#Cc2nn3c(N[C@@H]4CCN(C)C[C@@H]4F)nccc3c2SC(F)F)c(OC)c1 [Example 215]
< 0.01 µM
CNC(=O)c1ccc(NCC#Cc2nc3c(N[C@@H]4CCc5ncnn5C4)cccn3c2SC(F)(F)F)c(OC)c1 (stereo in doubt) [Example 190]
< 0.01 µM
CNC(=O)c1ccc(NCC#Cc2nc3c(N[C@H]4CCN(C)CC4(F)F)cccn3c2CC(F)(F)F)c(OC)c1 (single isomer, unassigned) [Example 38]
> 1 µM
CNC(=O)c1ccc(OC)c(NCC#Cc2nn3c(N[C@@H]4CCNC[C@@H]4F)cccc3c2SC(F)F)c1 [Example 195]
< 0.01 µM
CNC(=O)c1ccc(NCC#Cc2nc3c(N[C@@H]4CCN(C)C[C@@H]4F)cccn3c2C2CC2)c(OC)c1 [Example 29]
0.1 to 1 µM
CNC(=O)c1ccc(OC)c(NCC#Cc2nc3c(N[C@@H]4CCN(C)C[C@@H]4F)cccn3c2SC(F)F)c1 [Example 167]
< 0.01 µM
CNC(=O)c1ccc(NCC#Cc2nc3c(NC4CC5(C4)CN(CC(F)F)C5)cccn3c2SC(F)(F)F)c(OC)c1 [Example 173]
0.01 to 0.1 µM
CN1CC[C@@H](Nc2cccn3c(CC(F)(F)F)c(C#CCCN)nc23)[C@@H](F)C1 [Example 74]
0.1 to 1 µM

Report Kd for each item below.
1. C[C@H](O)C#Cc1nc2c(N[C@@H]3CCN(C)C[C@@H]3F)cccn2c1CC(F)(F)F [Example 71]
2. CNC(=O)c1ccc(OC)c(NCC#Cc2nc3c(N[C@H]4C[C@@H]5CC[C@H]([C@H]4F)N5C)cccn3c2SC(F)(F)F)c1 [Example 200]
3. COc1ccc(S(C)(=O)=O)cc1NCC#Cc1nc2c(N[C@@H]3CCN(C)C[C@@H]3F)cccn2c1SC(F)(F)F [Example 84]
4. CNC(=O)c1ccc(NCC#Cc2cc3c(N[C@@H]4CCN(C)C[C@@H]4F)cccn3c2SC(F)(F)F)c(OC)c1 [Example 126]
5. COc1cc(C(=O)N(C)C)ccc1NCC#Cc1nc2c(N[C@@H]3CCN(C)C[C@@H]3F)cccn2c1CC(F)(F)F [Example 46]
6. CNC(=O)c1ccc(NCC#Cc2nc3c(N[C@@H]4CCN(C)C[C@@H]4F)cccn3c2CC(F)(F)F)c(C#N)c1 [Example 56]
7. CNC(=O)c1ccc(NCC#Cc2nc3c(N[C@@H]4CCN(C)C[C@@H]4F)cccn3c2NC)c(OC)c1 [Example 25]
8. COc1ccc(C(=O)N(C)C)cc1NCC#Cc1nc2c(N[C@@H]3CCN(C)C[C@@H]3F)cccn2c1SC(F)(F)F [Example 143]

Result block:
0.1 to 1 µM
< 0.01 µM
< 0.01 µM
< 0.01 µM
< 0.01 µM
0.01 to 0.1 µM
0.1 to 1 µM
< 0.01 µM
